Recorded values, source PubChem BioAssay (NCI).

assay: NCI Yeast Anticancer Drug Screen. Data for the mlh1 rad18 strain (AID 175); details: S. cerevisiae mlh1 rad18 strain growth inhibition; at 50.0 µM; active compounds read high
The panel holds about 79,000 compounds, 15% with a hit somewhere; the sample as a whole holds those more often.
Would you please tag the item satisfied when its growth inhibition is 30% or above, and not satisfied when it is below?

*Q* Does the reported growth inhibition for `COc1ccc2c(c1OC)C(=O)C2` fall at or above the 30% mark?
*A* not satisfied

*Q* State whether the measured growth inhibition reaches 30%, counting equality as reaching it, for CC1(C)OC1(C(=O)C=[N+]=[N-])c1ccccc1 (stereo not given)
*A* not satisfied

*Q* Could you tell me if the measured growth inhibition of CC(=O)Oc1ccc(C2COc3cc(OC(C)=O)c(OC(C)=O)cc3C2)cc1 (stereo not given) reaches 30% or more?
*A* satisfied

*Q* // inclusive: growth inhibition at least 30%? input: Cc1ccc(S(=O)NOCc2ccccc2)cc1 (stereo not given)
*A* satisfied

*Q* Please tell me: is the compound C/C=C/C(C/C=C(\C)CO[Si](C)(C)C(C)(C)C)O[Si](C)(C)C(C)(C)C (stereo not given) at or over 30% in terms of growth inhibition?
*A* not satisfied

*Q* Kindly determine if growth inhibition recorded for COc1cc2c(cc1OC)C(C(c1ccccc1)c1ccccc1)N(C)CC2 (stereo not given) is above or exactly 30%.
*A* not satisfied

*Q* Please indicate if the recorded growth inhibition for CCOC(=O)C(c1ccc(C)cc1)C(Cl)(Cl)Cl (stereo not given) meets or exceeds 30%.
*A* not satisfied

*Q* In plain terms: is recorded growth inhibition at least 30% for Cc1ccc(S(=O)CC(Cl)c2ccccc2)cc1 (stereo not given) ?
*A* not satisfied

*Q* Please check the record `COc1ccc2c(c1)OCC1=C2Oc2ccccc2C1` and state if its growth inhibition is at or above 30%.
*A* satisfied

*Q* Does the compound `CS(=O)(=O)OCC(CCl)(CCl)CCl` have recorded growth inhibition that is 30% or more?
*A* not satisfied

---

Experiment: NCI Yeast Anticancer Drug Screen. Data for the sgs1 mgt1 strain (AID 161);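 further: 0% = growth of cultures given vehicle only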
Details: S. cerevisiae sgs1 mgt1 strain, at 50.0 µM, active compounds read high
Procedure: Growth inhibition of yeast strains with defined genetic alterations is measured as a screen for potential anti-cancer activity. Selected strains with alterations in DNA damage repair or cell cycle control were exposed to compounds and growth inhibition was measured relative to vehicle treated controls. The strain used in this assay is sgs1 mgt1
Compounds without any hit were thinned out: in the full panel of roughly 79,000, 15% have a hit.
I'd appreciate it if you could supply growth inhibition values for the items below.
Report the value in % with no unit label.

*Q* Form field: reported growth inhibition of `CN(C)c1ccc(S(=O)(=O)c2ccc3nc(N)nc(N)c3c2)cc1`
*A* 5.45

*Q* For the molecule shown here, COC1C(=O)c2ccccc2N1C(C)=O (stereo not drawn) , give the reported growth inhibition.
*A* -7.6

*Q* growth inhibition lookup needed for CCOC1(C)Oc2cc3c(cc2C(c2cc(OC)c(OC)c(OC)c2)C1C)OCO3 (stereo not drawn) , thanks.
*A* -6.75

*Q* Recorded growth inhibition for CC(C)(C)C1CCC2c3c([nH]c4ccccc34)C3C(=O)N(c4ccc(Br)cc4)C(=O)C3C2C1 (stereo not drawn) , please?
*A* 8.05

*Q* Fill in the blank: the reported growth inhibition of `CCOC(=O)c1sc(C(=O)OCC)c2c1-c1cccc3cccc-2c13` is ____.
*A* 4.35

*Q* Can you look up the measured growth inhibition of `O=S(=O)(c1ccccc1)N1CCCCC1` for me?
*A* 3.45

*Q* // query growth inhibition value for entry `Oc1ccc(Br)cc1C(=S)N1CCOCC1`
*A* 4.45

*Q* State the recorded growth inhibition for this entry: `N#Cc1ccc(CC(O)(c2ccccc2)c2ccccc2)cc1`
*A* -1.3

*Q* Any idea what its growth inhibition is? The molecule is `COc1ccc(C(=O)N/N=C/c2ccccc2)cc1`
*A* -7.7

*Q* Which value of growth inhibition has been reported for `O=c1c2cc(-c3ccccc3)sc2nc2n1N=C(c1ccccc1)CS2` in the records?
*A* -12.9

*Q* What value of measured growth inhibition is listed for `O=C(O)CSc1ncnc2nc[nH]c12` ?
*A* 1.9

*Q* Can you share its growth inhibition? I mean this molecule: `CCC(=O)Nc1ccccc1-c1ccccc1`
*A* 16.9

*Q* Which growth inhibition value belongs to O=C1OC(/C=C/c2ccccc2)C(=O)C1=O (stereo not drawn) ?
*A* -3.9

*Q* Param item = CC(=O)N1CN2C(=O)CCC2c2ccccc21 (stereo not drawn) ; retrieve measured growth inhibition.
*A* -14.2

*Q* Would you kindly share the measured growth inhibition for `O=C(O)c1ccccc1C(=O)OCc1ccccc1` ?
*A* 6.25

*Q* What growth inhibition value was documented for this molecule, CC(C1=CC=C2[C@@H]3CCC4CC(N(C)C)CC[C@]4(C)C3CC[C@]12C)N(C)C=O (stereo partly drawn) ?
*A* -16.2

*Q* Look up growth inhibition for this molecule: CCOc1cc2c(cc1O)CC[C@@H]1[C@@H]2CC[C@]2(C)C(N)CC[C@@H]12 (stereo partly drawn)
*A* -18.2

*Q* Consider the molecule `Nc1ccc2c(c1)Cc1cc(O)ccc1-2` and give its measured growth inhibition.
*A* 1.45
